Assay protocol: Solubility in distilled water
Format: physicochemical
Condition parameters: distilled water at 25° C
Property label: solubility (mg/mL)
Note: unit mg/mL is implicit; provide only the numeric part.

[in] Would you mind telling me what solubility value was observed for COCCc1ccc(OCC(O)CNC(C)C)cc1.O=C(O)C(O)C(O)C(=O)O (racemic) ?
[out] 860
